# Tested on: ROCK2;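 also: KINOMEscan kinase panel screen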
# SETTINGS: concentration: 1 μM, replicates: in singlicate; n = 1
REPORTED PROPERTY: %Inh (%)

>  <COMPOUND>
OCCOCCn1ccc2ncnc(Nc3ccc(Oc4cccc(Cl)c4)c(Cl)c3)c21

>  <UNITS SYMBOL>
%

>  <NUMERIC RESULT>
0

$$$$
>  <COMPOUND>
Cl.Fc1ccccc1COc1ccc(Nc2ncnc3ccc(-c4nnc(C(F)(F)F)o4)cc23)cc1Cl [GW424170]

>  <UNITS SYMBOL>
%

>  <NUMERIC RESULT>
4

$$$$
>  <COMPOUND>
COc1ccc(Nc2nccc(N3CCC(NC(=O)Nc4ccc5c(c4)OCO5)C3)n2)cc1 (stereo not drawn) [GSK1379745]

>  <UNITS SYMBOL>
%

>  <NUMERIC RESULT>
9

$$$$
>  <COMPOUND>
CCn1c(-c2ccncc2)nc2cnccc21 [SB-735216]

>  <UNITS SYMBOL>
%

>  <NUMERIC RESULT>
13

$$$$
>  <COMPOUND>
Oc1ccc2ncnc(Nc3ccc(OCc4ccccc4)cc3)c2c1 [GI262866]

>  <UNITS SYMBOL>
%

>  <NUMERIC RESULT>
0

$$$$
>  <COMPOUND>
COc1ccc(-c2oc3ncnc(N)c3c2-c2ccc(OC)cc2)cc1 [SB-589132]

>  <UNITS SYMBOL>
%

>  <NUMERIC RESULT>
0

$$$$
>  <COMPOUND>
CC(C)(C)c1ccc(-n2cnc3c(N)ncnc32)cc1 [SKF-97263]

>  <UNITS SYMBOL>
%

>  <NUMERIC RESULT>
0

$$$$
>  <COMPOUND>
FC(F)(F)c1ccc(-c2nn3ncccc3c2-c2ccnc(Nc3cccc(C(F)(F)F)c3)n2)cc1 [GW828205]

>  <UNITS SYMBOL>
%

>  <NUMERIC RESULT>
0

$$$$
>  <COMPOUND>
Cl.Cl.c1ccc(-c2cc3ccncc3cc2OC2CCNCC2)cc1 [GSK1122999]

>  <UNITS SYMBOL>
%

>  <NUMERIC RESULT>
91.6

$$$$
>  <COMPOUND>
CC(=O)Nc1n[nH]c2ncc(-c3ccccc3)cc12 [SB-548492]

>  <UNITS SYMBOL>
%

>  <NUMERIC RESULT>
1

$$$$
>  <COMPOUND>
O=C(Nc1ccccc1F)NC1CCN(c2ccnc(Nc3ccc(F)cc3)n2)C1 (stereo not drawn) [GSK1379722]

>  <UNITS SYMBOL>
%

>  <NUMERIC RESULT>
16

$$$$
>  <COMPOUND>
Cc1ccc(NC(=O)c2cccc(C#N)c2)cc1-c1ccc(C(=O)Nc2ccncc2)cc1 [GSK1398463]

>  <UNITS SYMBOL>
%

>  <NUMERIC RESULT>
0

$$$$
>  <COMPOUND>
CC(C)(C)OC(=O)NC1CCCN(c2cc(-c3ccc4c(N)n[nH]c4c3)nc(N)n2)C1 (stereo not drawn) [GSK2286096]

>  <UNITS SYMBOL>
%

>  <NUMERIC RESULT>
0

$$$$
>  <COMPOUND>
O=C(NCCCN1CCCC1=O)c1cnc(NCc2cc(Cl)ccc2Cl)nc1NC1CCNCC1

>  <UNITS SYMBOL>
%

>  <NUMERIC RESULT>
0

$$$$
>  <COMPOUND>
Cl.O=S(=O)(c1cccc(F)c1)c1ccc(Nc2ncnc3cc(Br)sc23)cc1Cl [GSK306886]

>  <UNITS SYMBOL>
%

>  <NUMERIC RESULT>
14

$$$$
>  <COMPOUND>
Clc1cccc(-c2nc(Nc3ccncc3)c3ccccc3n2)c1 [GW873004]

>  <UNITS SYMBOL>
%

>  <NUMERIC RESULT>
0

$$$$
>  <COMPOUND>
CCc1nc(-c2cccc(C)c2)c(-c2ccnc(NC(=O)c3ccccc3)c2)s1

>  <UNITS SYMBOL>
%

>  <NUMERIC RESULT>
0

$$$$
>  <COMPOUND>
Nc1nc(-c2ccc3c(N)n[nH]c3c2)cc(N2CCC[C@@H](C(=O)Nc3ccccc3)C2)n1.O=C(O)C(F)(F)F.O=C(O)C(F)(F)F [GSK2288359]

>  <UNITS SYMBOL>
%

>  <NUMERIC RESULT>
61

$$$$
